Exercise: state measured TGI for each of the molecules provided.
test system: PC-3 prostate; assay: NCI tumour cell line growth inhibition, 48 h

Please review the entries below; each comes with its answer.
NC(N)=NCCN=C(N)N: > 100 µM
S=C(c1c[nH]c2ccccc12)N1CCOCC1: > 100 µM
Cc1ccc(S(=O)(=O)N/N=C/C(=C/c2ccc(Cl)cc2)CC(/C=N/NS(=O)(=O)c2ccc(C)cc2)=C\c2ccc(Cl)cc2)cc1: 24 µM
Clc1c(Cl)c(Cl)c2nn(C3CCCO3)nc2c1Cl (stereo unspecified): > 100 µM

Give TGI for all molecules that follow.
1. COc1cc(C(=O)c2cc(C)c3[nH]c4ccc(Cl)cc4c3c2C)cc(OC)c1OC
2. COc1ccc(/C=C(/C(=O)c2ccc(Cl)cc2)N2C=CC=CC2=C(C#N)C#N)cc1OC
3. O=[N+]([O-])c1ccc(/C=N/n2c(CO)nc3ccccc32)o1
4. COC(C)(C)C1=CCC(C)CC1 (stereo unspecified)

1. 13.7 µM
2. 12.9 µM
3. 26.1 µM
4. > 100 µM

Provide TGI values for the following items, in order.
1. COC(=O)Cc1cc(O)c(C/C=C(\C)CC/C=C(\C)C(O)C(=O)C=C(C)C)cc1O (stereo unspecified)
2. Cn1c(=O)c2c(nc(Nc3cc(=O)[nH]c(=O)[nH]3)n2Cc2ccccc2)n(C)c1=O
3. CCC[CH2][Sn]([CH2]CCC)([CH2]CCC)[O]C(=O)CC

1: 87.7 µM; 2: > 100 µM; 3: 0.426 µM

I need TGI for every entry listed below, if you could help.
1. CCN1CCN(c2ccc(Nc3cc(N(C)C(=O)Nc4c(Cl)c(OC)cc(OC)c4Cl)ncn3)cc2)CC1
2. Ic1ccc(Nc2nc3nonc3nc2Nc2ccc(I)cc2)cc1
3. COc1cc(Nc2cnc3cc(F)c(F)cc3n2)cc(OC)c1OC
4. O=[N+]([O-])c1cc2oc(COc3ccccc3)nc2cc1Cl
5. Cn1cc(C2=C(c3ccc4ccccc4c3)C(=O)NC2=O)c2ccccc21

["19.2 µM", "> 100 µM", "> 100 µM", "> 100 µM", "> 25 µM"]

Provide reported TGI for each item, in the same order as listed.
1. CCn1c(-c2cc(OC)cc(OC)c2)nc2c1C(=O)c1ccccc1C2=O
2. O=C(Nc1ccc(OS(=O)(=O)c2ccccc2)cc1)C12CC3CC(CC(C3)C1)C2
3. CNc1ccc(OC)cc1S(=O)(=O)c1ccccc1[N+](=O)[O-]
4. COc1ncnc(C2CC2)c1-c1ncc2cnn(Cc3ccc(-c4nc(C(F)(F)F)cn4C(C)C)cc3)c2n1
5. COc1cc(/C=C2\CCC(C)C3C2=NN(C(C)=O)C3c2cc(OC)c(OC)c(OC)c2)cc(OC)c1OC (stereo unspecified)

["> 100 µM", "> 100 µM", "> 100 µM", "> 100 µM", "> 100 µM"]
